Hey, just so you know, these numbers are from ChEMBL document CHEMBL5241132.

- target.entity: Phosphatidylinositol 4,5-bisphosphate 3-kinase catalytic subunit delta isoform (Homo sapiens)
- Sequence (O00329 whole entry, canonical isoform): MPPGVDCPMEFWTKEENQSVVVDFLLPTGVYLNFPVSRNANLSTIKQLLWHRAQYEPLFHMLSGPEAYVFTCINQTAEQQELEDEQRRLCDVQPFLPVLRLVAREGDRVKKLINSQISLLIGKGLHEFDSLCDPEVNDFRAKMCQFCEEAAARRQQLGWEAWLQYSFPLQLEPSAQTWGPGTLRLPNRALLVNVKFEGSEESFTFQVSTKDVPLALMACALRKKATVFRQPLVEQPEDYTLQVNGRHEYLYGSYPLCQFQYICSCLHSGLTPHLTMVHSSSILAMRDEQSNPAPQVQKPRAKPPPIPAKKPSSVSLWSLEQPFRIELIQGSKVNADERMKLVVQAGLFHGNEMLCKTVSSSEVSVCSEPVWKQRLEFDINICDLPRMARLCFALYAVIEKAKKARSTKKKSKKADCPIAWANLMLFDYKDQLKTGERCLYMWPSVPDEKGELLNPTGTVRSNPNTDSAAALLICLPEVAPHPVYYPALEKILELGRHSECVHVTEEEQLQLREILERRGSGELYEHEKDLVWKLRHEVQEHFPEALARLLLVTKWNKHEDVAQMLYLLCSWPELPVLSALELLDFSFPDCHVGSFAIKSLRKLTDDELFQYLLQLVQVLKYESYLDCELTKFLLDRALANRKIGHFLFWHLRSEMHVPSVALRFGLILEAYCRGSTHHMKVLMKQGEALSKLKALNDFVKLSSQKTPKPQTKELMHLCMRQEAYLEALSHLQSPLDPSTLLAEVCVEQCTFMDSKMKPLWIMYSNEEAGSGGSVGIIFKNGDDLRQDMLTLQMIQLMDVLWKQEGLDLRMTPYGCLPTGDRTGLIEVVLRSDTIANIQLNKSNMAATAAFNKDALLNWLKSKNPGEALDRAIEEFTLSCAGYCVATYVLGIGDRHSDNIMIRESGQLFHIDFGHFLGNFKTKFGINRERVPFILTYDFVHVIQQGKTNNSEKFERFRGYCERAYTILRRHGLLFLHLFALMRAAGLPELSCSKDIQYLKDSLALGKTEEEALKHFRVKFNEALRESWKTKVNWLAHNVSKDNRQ
- assay.details: Inhibition of PI3Kdelta (unknown origin) by ADP Glo luminescent assay
pIC50: −log10 of the molar value.
assay.metric: pIC50

The cases that follow already have their pIC50 on record.
>  <compound.smiles>
Nc1ccc(-c2cnc(Cl)c(N)c2)cn1

>  <assay.metric>
pIC50

>  <experimental.value>
4.49

$$$$
>  <compound.smiles>
CC(=O)Nc1ccc(-c2cnc(Cl)c(NS(=O)(=O)c3ccccc3)c2)cn1

>  <assay.metric>
pIC50

>  <experimental.value>
7.32

$$$$
>  <compound.smiles>
Nc1ccc(-c2cnc(Cl)c(NS(=O)(=O)c3ccc(F)cc3F)c2)cn1

>  <assay.metric>
pIC50

>  <experimental.value>
7.17

$$$$

(A) Cc1ccc(S(=O)(=O)Nc2cc(-c3ccc(N)nc3)cnc2Cl)cc1
(B) Nc1ccc(-c2cnc(Cl)c(NS(=O)(=O)c3ccc(F)cc3)c2)cn1
Recorded pIC50 values differ for A and B ; which one is higher? Your answer should be the label of the entry you select.
A
(A: 7.39, B: 7.01)

(a) N#Cc1ncc(-c2ccc(N)nc2)cc1N
(b) COCCNC(=O)Nc1ccc(-c2cnc(Cl)c(NS(=O)(=O)c3ccccc3)c2)cn1
Recorded pIC50 values differ for a and b ; which one is higher? Your answer should be the label of the entry you select.
b
(b: 7.52, a: 4.47)

(I) Nc1ccc(-c2cnc(Cl)c(NS(=O)(=O)c3ccccc3)c2)cn1
(II) CN(c1cc(-c2ccc(N)nc2)cnc1Cl)S(=O)(=O)c1ccccc1
Looking at recorded values for pIC50, does I or II come in lower? Your answer should be the label of the entry you select.
II
